# target desc: T1, mouse serum albumin (mouse, UniProt P07724 25-608)
# T1 construct: Immobilised on SPR chips; also called mouseSA; MSA
# procedure details: SPR Biacore 8K+ SCK, albumin on chip, pH 7.4
metric name: Kd (µM)
Record the value in µM, omitting the unit from your answer.

Known results for binders:
[
  {
    "binder": "Alb23 S56A (VHH, VHH alone) VHH: EVQLLESGGGLVQPGGSLRLSCAASGFTFRSFGMSWVRQAPGKGPEWVSSISGSGADTLYADSVKGRFTISRDNSKNTLYLQMNSLRPEDTAVYYCTIGGSLSRSSQGTLVTVSS",
    "units label": "µM",
    "number": 0.0377
  },
  {
    "binder": "Alb23 G99A (VHH, VHH alone) VHH: EVQLLESGGGLVQPGGSLRLSCAASGFTFRSFGMSWVRQAPGKGPEWVSSISGSGSDTLYADSVKGRFTISRDNSKNTLYLQMNSLRPEDTAVYYCTIAGSLSRSSQGTLVTVSS",
    "units label": "µM",
    "number": 0.0731
  },
  {
    "binder": "Alb23 S31A (VHH, VHH alone) VHH: EVQLLESGGGLVQPGGSLRLSCAASGFTFRAFGMSWVRQAPGKGPEWVSSISGSGSDTLYADSVKGRFTISRDNSKNTLYLQMNSLRPEDTAVYYCTIGGSLSRSSQGTLVTVSS",
    "units label": "µM",
    "number": 0.0293
  },
  {
    "binder": "Alb23 S103A (VHH, VHH alone) VHH: EVQLLESGGGLVQPGGSLRLSCAASGFTFRSFGMSWVRQAPGKGPEWVSSISGSGSDTLYADSVKGRFTISRDNSKNTLYLQMNSLRPEDTAVYYCTIGGSLARSSQGTLVTVSS",
    "units label": "µM",
    "number": 0.0382
  },
  {
    "binder": "Alb23 V64A (VHH, VHH alone) VHH: EVQLLESGGGLVQPGGSLRLSCAASGFTFRSFGMSWVRQAPGKGPEWVSSISGSGSDTLYADSAKGRFTISRDNSKNTLYLQMNSLRPEDTAVYYCTIGGSLSRSSQGTLVTVSS",
    "units label": "µM",
    "number": 0.0319
  },
  {
    "binder": "Alb23 L59A (VHH, VHH alone) VHH: EVQLLESGGGLVQPGGSLRLSCAASGFTFRSFGMSWVRQAPGKGPEWVSSISGSGSDTAYADSVKGRFTISRDNSKNTLYLQMNSLRPEDTAVYYCTIGGSLSRSSQGTLVTVSS",
    "units label": "µM",
    "number": 0.354
  }
]

Inquiry: Fill in the blank: the reported Kd of Alb23 T58A (VHH, VHH alone) VHH: EVQLLESGGGLVQPGGSLRLSCAASGFTFRSFGMSWVRQAPGKGPEWVSSISGSGSDALYADSVKGRFTISRDNSKNTLYLQMNSLRPEDTAVYYCTIGGSLSRSSQGTLVTVSS is ____.
Reply text: 0.0571

Inquiry: // lookup Kd for Alb23 G66A (VHH, VHH alone) VHH: EVQLLESGGGLVQPGGSLRLSCAASGFTFRSFGMSWVRQAPGKGPEWVSSISGSGSDTLYADSVKARFTISRDNSKNTLYLQMNSLRPEDTAVYYCTIGGSLSRSSQGTLVTVSS
Reply text: 0.0395

Recorded values, source patent US20260152573A1.
